- System: 3T3 host cells
- assayDetails: Host cell number in the same well of the amastigote image-based assay
- Parameters: species or system mouse
- particulars: read-out: 3T3 % activity highest dose; at 36.6 μM, solid sample
measuredQuantity: cytotoxicity (%)

{"molecule": "O=C(NC(c1ccccc1)c1ccc2cccnc2c1O)c1ccccc1 (stereo not shown) [MMV666080]", "readoutUnits": "%", "measuredNumber": 34}

###

- assayDetails: Host cell number in the same well of the amastigote image-based assay
- Design: species or system mouse
- particulars: mouse, 3T3 host cells infected with T. cruzi
measuredQuantity: cytotoxicity at 48 h, 5 µM (%)

{"molecularString": "CC[C@@]1(O)C(=O)OCc2c1cc1n(c2=O)Cc2cc3ccccc3nc2-1", "measuredNumber": 38}

###

- assayDetails: Host cell number in the same well of the amastigote image-based assay
- Design: species or system mouse
- particulars: mouse, 3T3 host cells infected with T. cruzi

{"molecule": "CN(C)c1ccc(Nc2c3ccccc3nc3ccccc23)cc1 [STL088556]", "cytotoxicity at 48 h, 73.3 µM (%)": 62}

###

SI (3T3) values, listed per item
- System: 3T3 host cells
- assayDetails: Host cell number in the same well of the amastigote image-based assay
- Set-up: species or system mouse
- particulars: 3T3 IC50 or highest dose tested / amastigote IC50; based on solid samples

{"molecule": "COc1ccccc1N1CCN(C(CNS(=O)(=O)c2ccc(Cl)cc2)c2cccnc2)CC1 (centres unmarked) [MMV665914]", "SI (3T3)": "> 42.37"}
{"molecule": "COc1ccc2sc(N(Cc3cccnc3)C(=O)c3ccc(C#N)cc3)nc2c1 [MMV001239]", "SI (3T3)": "> 20.65"}
{"molecule": "CC1CS(=O)(=O)CCN1/N=C/c1ccc([N+](=O)[O-])o1 (centres unmarked) [Nifurtimox, nifurtimox]", "SI (3T3)": "> 231.8"}
{"molecule": "COc1ccc(C)c2sc(N(Cc3cccnc3)C(=O)c3ccc(C#N)cc3)nc12 [MMV001241]", "SI (3T3)": "> 31.59"}
{"molecule": "COc1ccc(C[C@H](N)C(=O)N[C@H]2[C@@H](O)[C@H](n3cnc4c(N(C)C)ncnc43)O[C@@H]2CO)cc1 [Puromycin, puromycin]", "SI (3T3)": 1.48}
{"molecule": "Cc1[nH]c2ccccc2c(=O)c1CC=C(Cl)Cl [MMV665994]", "SI (3T3)": "> 59.59"}
{"molecule": "CCOc1cccc2sc(N(Cc3cccnc3)C(=O)C3CCCCC3)nc12 [MMV001230]", "SI (3T3)": "> 87.26"}
{"molecule": "O=C(NC(c1ccccc1)c1ccc2cccnc2c1O)c1ccccc1 (centres unmarked) [MMV666080]", "SI (3T3)": "> 25.77"}

###

- Tested on: 3T3 host cells
- assayDetails: Host cell number in the same well of the amastigote image-based assay
- Design: species or system mouse
- particulars: Mus musculus, read-out: Host IC50 ± stdev, 3T3, run of solid sample retest
pIC50: −log10 of the molar value.
measuredQuantity: pIC50

{"compound": "COc1ccc(C[C@H](N)C(=O)N[C@H]2[C@@H](O)[C@H](n3cnc4c(N(C)C)ncnc43)O[C@@H]2CO)cc1 [Puromycin, puromycin]", "measuredQuantity": "pIC50", "measuredNumber": 5.56}

###

- System: T. cruzi trypomastigotes
- assayDetails: Trypomastigote viability assay
- Format: cell-based, Trypanosoma cruzi Tulahuen strain
- particulars: read-out: IC50 T. cruzi Trypomastigote (μM ± SD); Malaria Box DMSO sample

{"compound": "O=C(NC(c1ccccc1)c1ccc2cccnc2c1O)c1ccccc1 (centres unmarked)", "IC50": "0.9 µM"}
{"compound": "O=C(Nc1nc(-c2ccccn2)cs1)c1ccccc1Br", "IC50": "1.08 µM"}
